Where do the numbers come from? From the RNAGym collection of RNA variant scans (doi:10.1073/pnas.2313332121).

B1: TPR 5TU (parent)
chain: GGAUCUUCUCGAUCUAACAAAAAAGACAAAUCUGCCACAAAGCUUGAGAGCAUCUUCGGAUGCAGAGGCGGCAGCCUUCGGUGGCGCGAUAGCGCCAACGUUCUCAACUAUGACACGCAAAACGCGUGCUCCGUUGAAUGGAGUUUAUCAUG

Variants of: B1
ASSAY_NOTES: polymerase ribozyme fitness, log enrichment relative to wild type (log ratio); higher = more active; in vitro selection for triplet polymerase activity
Fewer inactive variants are shown than the library holds.
Give polymerase ribozyme fitness (log ratio) for every item shown.

Exercise: Supply measured polymerase ribozyme fitness (log ratio) of C35G G74A U90A C95U in your reply.
Key: ≤ -4.2

Exercise: Supply measured polymerase ribozyme fitness (log ratio) of A23G U90A C93U C105U C125U in your reply.
Key: ≤ -4.2

Exercise: Supply measured polymerase ribozyme fitness (log ratio) of U15A A17U C57G G88U A91C U111C C129A U134G U148C in your reply.
Key: ≤ -4.2

Exercise: Supply measured polymerase ribozyme fitness (log ratio) of A17U A23U C36G C57A G70U U78C C85U C103G A147C C149U in your reply.
Key: ≤ -4.2

Exercise: Supply measured polymerase ribozyme fitness (log ratio) of U9G A20U U31C C38G G86A U127G in your reply.
Key: ≤ -4.2

Exercise: Supply measured polymerase ribozyme fitness (log ratio) of U4G A12U A39C G62A C76U C87G A91U in your reply.
Key: ≤ -4.2

Exercise: Supply measured polymerase ribozyme fitness (log ratio) of U55G C69U U78A A91U C93U G141A in your reply.
Key: ≤ -4.2

Exercise: Supply measured polymerase ribozyme fitness (log ratio) of U56G U78C C99G G124C C125U in your reply.
Key: -2.94

Exercise: Supply measured polymerase ribozyme fitness (log ratio) of A12G C87A in your reply.
Key: ≤ -4.2

Exercise: Supply measured polymerase ribozyme fitness (log ratio) of U4G G11C A40U G50C G83U in your reply.
Key: ≤ -4.2

Exercise: Supply measured polymerase ribozyme fitness (log ratio) of U4G A26U G50U C87A G141A A150U in your reply.
Key: ≤ -4.2

Exercise: Supply measured polymerase ribozyme fitness (log ratio) of C57G A73C C87G A97G U101G U130C in your reply.
Key: ≤ -4.2

Exercise: Supply measured polymerase ribozyme fitness (log ratio) of C5G A23C G68C G81C G83C U101G C118U G141U in your reply.
Key: ≤ -4.2

Exercise: Supply measured polymerase ribozyme fitness (log ratio) of U6A C57G C96U G141C in your reply.
Key: -0.945

Exercise: Supply measured polymerase ribozyme fitness (log ratio) of A17G C79A G80C U109C in your reply.
Key: ≤ -4.2

Exercise: Supply measured polymerase ribozyme fitness (log ratio) of A20U A28U A64C C79U C93A C114U in your reply.
Key: ≤ -4.2

Exercise: Supply measured polymerase ribozyme fitness (log ratio) of A40U U55G G58A A97G in your reply.
Key: -0.0754

Exercise: Supply measured polymerase ribozyme fitness (log ratio) of A119U G126A in your reply.
Key: 0.174

Exercise: Supply measured polymerase ribozyme fitness (log ratio) of C95U C99A G117U U148A in your reply.
Key: ≤ -4.2

Exercise: Supply measured polymerase ribozyme fitness (log ratio) of C27A U56A in your reply.
Key: -3.7

Exercise: Supply measured polymerase ribozyme fitness (log ratio) of C76G C96A U104G G112C in your reply.
Key: ≤ -4.2

Exercise: Supply measured polymerase ribozyme fitness (log ratio) of U6G U45A C57U G67C C95G C99U in your reply.
Key: ≤ -4.2

Exercise: Supply measured polymerase ribozyme fitness (log ratio) of U13C C54G C95G in your reply.
Key: -3.76

Exercise: Supply measured polymerase ribozyme fitness (log ratio) of G59A C85G C99U A120G in your reply.
Key: ≤ -4.2

Exercise: Supply measured polymerase ribozyme fitness (log ratio) of A66C A91G A98U C131A U139A in your reply.
Key: ≤ -4.2

Exercise: Supply measured polymerase ribozyme fitness (log ratio) of U44A C54A C75G G92U U145C in your reply.
Key: ≤ -4.2

Exercise: Supply measured polymerase ribozyme fitness (log ratio) of U56G C69U A73U U134C G141U U146A in your reply.
Key: -2.72

Exercise: Supply measured polymerase ribozyme fitness (log ratio) of A29C U55A C75A C85U G141C in your reply.
Key: ≤ -4.2

Exercise: Supply measured polymerase ribozyme fitness (log ratio) of A26U G84C U145G in your reply.
Key: ≤ -4.2

Exercise: Supply measured polymerase ribozyme fitness (log ratio) of C69G C87A in your reply.
Key: ≤ -4.2

Exercise: Supply measured polymerase ribozyme fitness (log ratio) of A19C A21C A26C U44A C57A U61A G68A G86A C118U in your reply.
Key: ≤ -4.2

Exercise: Supply measured polymerase ribozyme fitness (log ratio) of A19G G94U C96U C116A C125U G133U in your reply.
Key: ≤ -4.2

Exercise: Supply measured polymerase ribozyme fitness (log ratio) of G84U C96U A122G C149G in your reply.
Key: ≤ -4.2

Exercise: Supply measured polymerase ribozyme fitness (log ratio) of C75G U78G A115G in your reply.
Key: ≤ -4.2

Exercise: Supply measured polymerase ribozyme fitness (log ratio) of G50U A122G U148A in your reply.
Key: -3.37

Exercise: Supply measured polymerase ribozyme fitness (log ratio) of C14U A24U U55A G70C G94A C116G in your reply.
Key: ≤ -4.2

Exercise: Supply measured polymerase ribozyme fitness (log ratio) of C10U C54U U55G in your reply.
Key: ≤ -4.2

Exercise: Supply measured polymerase ribozyme fitness (log ratio) of A12G A21C A23G C76G C116G G133A in your reply.
Key: ≤ -4.2

Exercise: Supply measured polymerase ribozyme fitness (log ratio) of A52C A66C A91C A115G in your reply.
Key: ≤ -4.2

Exercise: Supply measured polymerase ribozyme fitness (log ratio) of G83C U104G in your reply.
Key: -2.14

Exercise: Supply measured polymerase ribozyme fitness (log ratio) of A19C G86A in your reply.
Key: -0.455

Exercise: Supply measured polymerase ribozyme fitness (log ratio) of U15C A17G C35G U56A G117C in your reply.
Key: -4.19

Exercise: Supply measured polymerase ribozyme fitness (log ratio) of C99U G141A in your reply.
Key: -0.231

Exercise: Supply measured polymerase ribozyme fitness (log ratio) of A12U U56C G59A G88C in your reply.
Key: ≤ -4.2

Exercise: Supply measured polymerase ribozyme fitness (log ratio) of A37C G58A C87A U101G G124C A150U in your reply.
Key: ≤ -4.2

Exercise: Supply measured polymerase ribozyme fitness (log ratio) of G59A A107U G126A in your reply.
Key: -3.68
